Test system: LPETG (Abz-LPETGK(Dnp)-CONH2)
Assay: In vitro sortase kinetics HPLC assay, LPETG substrate
Format: biochemical
Settings: Example 5 variants; substrate wt (LPETG)
Experimental: See below for details on sortase expression and purification, and on the synthesis of Abz-LPETGK(Dnp)-CONH2 (SEQ ID NO: 19). […] Reactions were initiated with the addition of enzyme and incubated at 22.5° C. for 3 to 20 minutes before quenching with 0.5 volumes of 1 M HCl. […] Percent conversion was also calculated by using the ratio of the integrated areas of the GK(Dnp)-CONH2 and Abz-LPETGK(Dnp)-CONH2 peptide Abs355 peaks were compared directly (Example 5). […]
endpoint.label: Avg kcat (Hz)
Numbers only, in Hz.

Hey, can you go through the list below and give me Avg kcat (Hz) for every item?
1. eSrtA(4S-3): round 3 LPESG clone: eSrtA + N98S A104T A118T F122S D124G K134R K173E K177E I182V (protein) QAKPQIPKDKSKVAGYIEIPDADIKEPVYPGPATREQLSRGVSFTEENESLDDQNISITGHTSIGRPNYQFTNLRAAKKGSMVYFKVGNETRKYKMTSIRNVKPTAVEVLDEQEGKDEQLTLVTCDDYNEETGVWETRKIFVATEVK
2. eSrtA(2A-6): round 6 consensus variant targeting LAETG; kinetics close to 2A.6A (protein) QAKPQIPKDKSKVAGYIEIPDADIKEPVYPGPATREQLNRGVSFHEENESLDDQNISIAGHTFIDRPNYQFTNLKAAKVGSMVYFKVGNETRKYKMTSIRNVRPTAVEVLDEQKGKDKQLTLVTCDDYNEETGVWETRKIFVATEVK
3. eSrtA(2A-3): round 3 LAETG clone: eSrtA + K84R F122S D124G K134R K145E K162R V168I K177R I182F (protein) QAKPQIPKDKSKVAGYIEIPDADIREPVYPGPATREQLNRGVSFAEENESLDDQNISIAGHTSIGRPNYQFTNLRAAKKGSMVYFEVGNETRKYKMTSIRNVRPTAVEILDEQKGKDRQLTLFTCDDYNEETGVWETRKIFVATEVK

Reply:
0.007565
0.1622
2.653
